For each entry below, report its composite z-score value.
- System: Wnt5a (protein binding on small-molecule microarray)
- assayComment: Wnt5a binders on small-molecule microarray, primary screen, biophysical, 635/667 nm fluorescence (AID 1142);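 further: fluorescence read at 667 nm with signal to noise per printed feature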
- conditionInfo: 635 nm fluorescence, higher = more signal
The answer should be written as a number, with no unit following it.

composite z-score for COCCOC(=O)N1C(=O)[C@@]2(c3cc(C#CC4=CCCCC4)ccc31)[C@H](c1ccc(O)cc1)N1[C@H](c3ccccc3)[C@H](c3ccccc3)OC(=O)[C@H]1[C@@H]2C(N)=O ? 0.824

Item Cc1ccc(S[C@]2(C(=O)NCCN3CCOCC3)CC(=O)N(Cc3ccccc3)[C@@H]2c2ccc(CO)cc2I)cc1 has what recorded composite z-score? 0.0376

Recorded composite z-score for CC(C)OC(=O)C=C1C[C@@H](c2ccccc2C(F)(F)F)O[C@@H](c2ccccc2C(F)(F)F)O1 , please? 0.0503

Item CCCC[C@@H]1C[C@H]1[C@@H](NC(=O)c1ccco1)c1ccc(Cl)cc1 has what recorded composite z-score? 0.202

What value of measured composite z-score is listed for COCCOC(=O)N1C(=O)[C@@]2(c3cc(C#CCCO)ccc31)[C@H](C(=O)N1CCc3cc(OC)c(OC)cc3C1)[C@H]1C(=O)O[C@H](c3ccccc3)[C@H](c3ccccc3)N1[C@@H]2c1ccc(O)cc1 ? 0.304

Which composite z-score is listed for C=CC[C@@]1(C(=O)NCc2ccccc2)N=C(c2ccc(OCCCO)cc2)O[C@@H]1c1ccccc1N=[N+]=[N-] ? 0.465

I have this molecule here, C=CCNC(=O)[C@H]1[C@@H]2C(=O)O[C@@H](c3ccccc3)[C@@H](c3ccccc3)N2[C@@H](c2ccc(OCCO)cc2)[C@]12C(=O)N(C(=O)OCCOC)c1ccccc12 , and I need its recorded composite z-score. 0.25

Find the recorded composite z-score belonging to CCCCCC1=C2CNC(CCC)(C(=O)OC)C=C2C(C)C1=O (stereo not given) and report it. 0.0324

Bench note: what composite z-score did COC(=O)[C@@]1(Cc2ccc(F)cc2)[C@@H]2[C@@H](CC(=O)[C@H]2CC(=O)C(=O)N(C)C)CN1C(=O)c1ccccc1 show? 0.618

Reported composite z-score, molecule COc1ccc(C(O)C2C=CC3C(=O)N(c4ccccc4)C(=O)C3N2Nc2ccc(C(C)C)cc2)cc1OCc1ccccc1 (stereo not given) : ____ 0.409

Tell me the measured composite z-score of CC(C)C(CO)N1C(=O)[C@@H]2[C@H]3C(=O)OCC=C[C@H]3OC23C=CCN(C(C)C)C(=O)[C@@H]13 (stereo not given in full) , please. -0.3

Query: composite z-score; subject: COc1cc(OC)c(C(O)C2C=CC3C(=O)NC(=O)C3N2Nc2ccc(Cl)cc2Cl)cc1Br (stereo not given) 0.153

What value of composite z-score has been recorded for this entry: COCCn1c(C(=O)N2CCCC2)cc2c1C[C@H]1CN(C(=O)c3ccccc3)[C@@](Cc3ccc(F)cc3)(C(=O)OC)[C@@H]21 0.45

What measured composite z-score goes with O=C(NCc1ccccc1)[C@@]1(CCS(=O)(=O)c2ccccc2)N=C(c2ccc(OCCCO)cc2)O[C@H]1c1ccccc1 ? 0.794

Report composite z-score for O=C1O[C@@H](c2ccccc2)[C@@H](c2ccccc2)N2[C@@H](c3ccc(OCCO)cc3)[C@]3(C(=O)Nc4ccccc43)[C@@H](C(=O)NC[C@H](O)c3ccccc3)[C@H]12 please. 0.0635
